# System: Matrix protein 2 (Influenza A virus), P06821 [V27A]
# TEST DETAILS: Inhibition of Influenza A Virus M2 proton channel V27A mutant expressed in Xenopus laevis oocytes at 100 uM after 2 mins by two-electrode patch clamp assay
# Assay type: cell-based
# CONDITION: Oocyte
Entries and their inhibition values follow.

| MOLECULE | inhibition |
| --- | --- |
| NNC1CCC2(CCCCC2)CC1 | < 15% |
| NN1CCC2(CCCCC2)CC1 | < 15% |
| C1CC2CCC1CNC2 | < 15% |
| NC12CC3CC(C1)CC(O)(C3)C2 | < 15% |
| NC1C2C3CC4C2C(O)C2C1C3C42 (stereo unspecified) | < 15% |
| NC1CCC2(CCCCC2)CC1 | < 15% |
| NN1C(=O)CC2(CCCCC2)CC1=O | < 15% |
| NC12CC3CCC(CC(C3)C1)C2 | < 15% |
| N=C(NO)C12CC3CC(CC(C3)C1)C2 | < 15% |
| NOC12CC3CC(CC(C3)C1)C2 | < 15% |
| NC(=O)C12CC3CC(CC(C3)C1)C2 | < 15% |
| C1CC2CC1C1CNC21 (stereo unspecified) | < 15% |
| NC12CC3CC(C1)CC(CO)(C3)O2 | < 15% |
| CC(C)(C)CC(C)(C)N | < 15% |
| OC1C2C3CC4C2C(O)C2C1C3C42 (stereo unspecified) | < 15% |
| N=C(N)NCC12CC3CCC(CC(C3)C1)C2 | < 15% |
